Sourced from PubChem BioAssay (NCI)

Test system: SF-268 CNS
assay.notes: NCI-60 one-dose screen, 48 h (100 = growth as untreated, 0 = no growth, -100 = all killed)
details: 10 µM unless noted
About 83,000 compounds went through this panel and 20% of them were active in at least one assay; those are over-represented in the sample as a whole. Calls of active or inactive are those of the source. The calls were made as follows: active = growth percent below 10; inactive = the rest.
endpoint.name: growth

What growth value was documented for this compound, Fc1ccc(N2COOC3(OOC2)C2CC4CC(C2)CC3C4)cc1 ? 91.5% (inactive)

What growth value was documented for this compound, Clc1ccc(COC(Cn2ccnc2)c2ccc(Cl)cc2Cl)cc1 (configuration not stated) ? 52.1% (inactive)

Next:
What growth value was documented for this compound, CN1C(=O)C(=Cc2cn(CCCCCCn3c4ccccc4c(=O)c4ccccc43)c3ccccc23)C(=O)N(C)C1=O ? 94.6% (inactive)

What growth value was documented for this compound, CCC1(C(C)C)C(=O)NC(=S)NC1=O ? 96.1% (inactive)

What growth value was documented for this compound, CCC[CH2][Sn]([CH2]CCC)([CH2]CCC)[O]c1ccc(Cl)cc1Cl ? -91% (active)

What growth value was documented for this compound, COC(=O)[C@@H](C)C[C@H](Cc1ccccc1)NC(=O)c1csc([C@@H](C[C@H](C(C)C)N(C)C(=O)[C@H](C)NC(=O)[C@H]2CCCCN2C)OC(C)=O)n1 ? 46.9% (inactive)

What growth value was documented for this compound, Nc1c(F)cc(-c2nc3cc(F)ccc3[se]2)cc1Br ? 98.6% (inactive)

What growth value was documented for this compound, Fc1ccc2c(c1)c(-c1nc(-c3c[nH]c4ncccc34)cs1)cn2CCN1CCOCC1 ? 56.6% (inactive)

What growth value was documented for this compound, COc1cc2c(cc1OCCCCn1c(-c3cccs3)nc3ccccc31)N=C[C@@H]1CCCN1C2=O ? -7.58% (active)
